biological target: EGFR L858R (Homo sapiens, UniProt P00533, L858R); assay: EGFR degradation, Total EGFR (L858R-specific) HTRF, NCI-H3255; format: cell-based; set-up: NCI-H3255 (harboring EGFR heterozygous L858R mutation); host or cells: NCI-H3255; settings: Table 9A; NCI-H3255 cells, 6 hours, Total EGFR HTRF; read-out: H3255 EGFR DC50
Sequence (P00533 25-1210 L858R): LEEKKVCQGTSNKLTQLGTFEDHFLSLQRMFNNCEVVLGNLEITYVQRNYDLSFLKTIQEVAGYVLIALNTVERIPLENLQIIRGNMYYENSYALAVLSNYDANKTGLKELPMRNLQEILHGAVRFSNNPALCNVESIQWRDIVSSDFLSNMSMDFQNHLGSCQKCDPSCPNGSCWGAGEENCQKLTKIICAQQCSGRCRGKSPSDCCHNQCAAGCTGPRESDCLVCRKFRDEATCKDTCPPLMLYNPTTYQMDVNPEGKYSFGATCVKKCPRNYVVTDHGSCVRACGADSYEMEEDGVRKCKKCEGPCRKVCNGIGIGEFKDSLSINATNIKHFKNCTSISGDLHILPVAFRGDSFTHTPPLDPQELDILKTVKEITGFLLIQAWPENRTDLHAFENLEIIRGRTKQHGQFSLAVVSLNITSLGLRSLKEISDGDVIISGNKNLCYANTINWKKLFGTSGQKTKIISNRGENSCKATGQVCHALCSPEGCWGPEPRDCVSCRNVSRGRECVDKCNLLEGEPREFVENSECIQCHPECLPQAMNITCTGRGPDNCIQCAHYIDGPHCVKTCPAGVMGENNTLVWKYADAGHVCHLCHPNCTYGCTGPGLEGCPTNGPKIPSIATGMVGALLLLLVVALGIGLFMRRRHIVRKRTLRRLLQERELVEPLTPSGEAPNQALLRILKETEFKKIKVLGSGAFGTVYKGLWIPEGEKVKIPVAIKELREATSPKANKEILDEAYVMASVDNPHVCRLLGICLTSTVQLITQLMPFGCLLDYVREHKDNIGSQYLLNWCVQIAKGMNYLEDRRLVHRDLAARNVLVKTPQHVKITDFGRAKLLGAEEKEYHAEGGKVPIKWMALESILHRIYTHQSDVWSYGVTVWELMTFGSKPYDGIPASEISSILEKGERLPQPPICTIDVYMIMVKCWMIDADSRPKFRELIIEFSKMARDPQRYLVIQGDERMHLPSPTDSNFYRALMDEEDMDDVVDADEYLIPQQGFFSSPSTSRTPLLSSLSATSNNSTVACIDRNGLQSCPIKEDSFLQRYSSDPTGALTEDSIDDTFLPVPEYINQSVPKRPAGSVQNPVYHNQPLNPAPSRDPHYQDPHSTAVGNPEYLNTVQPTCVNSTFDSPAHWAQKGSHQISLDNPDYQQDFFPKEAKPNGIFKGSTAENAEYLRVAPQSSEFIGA
Assay Readout: DC50

Reference set (2 entries):
>  <Compound>
O=C1CC[C@H](Nc2ccc(C3CCN(CC(=O)N4CC5(C4)CN(c4ccc(-c6cc(F)c7c(c6)C(=O)N(C(C(=O)Nc6ccccn6)c6ncn8c6CCC8)C7)cc4)C5)CC3)c(F)c2)C(=O)N1 (stereo partly drawn)

>  <Reported Result>
< 50 nM

$$$$
>  <Compound>
O=C1CC[C@H](Nc2ccc(C3CCN(CC(=O)N4CCC(c5ccc(-c6cc(F)c7c(c6)C(=O)N(C(C(=O)Nc6nccs6)c6ncn8c6CCC8)C7)cc5)CC4)CC3)c(F)c2)C(=O)N1 (stereo partly drawn)

>  <Reported Result>
< 50 nM

$$$$

Shifting focus to the compound that follows.
Value of DC50 reported for the compound O=C1CCC(Nc2ccc(C3CCN(CC(=O)N4CCC(c5ccc(-c6cc(F)c7c(c6)C(=O)N(C(C(=O)Nc6nccs6)c6ncn8c6CCC8)C7)cc5)CC4)CC3)cc2)C(=O)N1 (stereo not drawn) is < 50 nM

###

target: EGFR L858R-T790M (Homo sapiens, UniProt P00533, L858R/T790M); construct: NCI-H1975 (harboring EGFR heterozygous L858R-T790M mutations); host or cells: NCI-H1975; assay: EGFR degradation, Total EGFR (L858R-specific) HTRF, NCI-H1975; assay type: cell-based; conditions: Table 9A; NCI-H1975 cells, 6 hours, Total EGFR HTRF; read-out: H1975 EGFR DC50
Sequence (P00533 25-1210 T790M/L858R): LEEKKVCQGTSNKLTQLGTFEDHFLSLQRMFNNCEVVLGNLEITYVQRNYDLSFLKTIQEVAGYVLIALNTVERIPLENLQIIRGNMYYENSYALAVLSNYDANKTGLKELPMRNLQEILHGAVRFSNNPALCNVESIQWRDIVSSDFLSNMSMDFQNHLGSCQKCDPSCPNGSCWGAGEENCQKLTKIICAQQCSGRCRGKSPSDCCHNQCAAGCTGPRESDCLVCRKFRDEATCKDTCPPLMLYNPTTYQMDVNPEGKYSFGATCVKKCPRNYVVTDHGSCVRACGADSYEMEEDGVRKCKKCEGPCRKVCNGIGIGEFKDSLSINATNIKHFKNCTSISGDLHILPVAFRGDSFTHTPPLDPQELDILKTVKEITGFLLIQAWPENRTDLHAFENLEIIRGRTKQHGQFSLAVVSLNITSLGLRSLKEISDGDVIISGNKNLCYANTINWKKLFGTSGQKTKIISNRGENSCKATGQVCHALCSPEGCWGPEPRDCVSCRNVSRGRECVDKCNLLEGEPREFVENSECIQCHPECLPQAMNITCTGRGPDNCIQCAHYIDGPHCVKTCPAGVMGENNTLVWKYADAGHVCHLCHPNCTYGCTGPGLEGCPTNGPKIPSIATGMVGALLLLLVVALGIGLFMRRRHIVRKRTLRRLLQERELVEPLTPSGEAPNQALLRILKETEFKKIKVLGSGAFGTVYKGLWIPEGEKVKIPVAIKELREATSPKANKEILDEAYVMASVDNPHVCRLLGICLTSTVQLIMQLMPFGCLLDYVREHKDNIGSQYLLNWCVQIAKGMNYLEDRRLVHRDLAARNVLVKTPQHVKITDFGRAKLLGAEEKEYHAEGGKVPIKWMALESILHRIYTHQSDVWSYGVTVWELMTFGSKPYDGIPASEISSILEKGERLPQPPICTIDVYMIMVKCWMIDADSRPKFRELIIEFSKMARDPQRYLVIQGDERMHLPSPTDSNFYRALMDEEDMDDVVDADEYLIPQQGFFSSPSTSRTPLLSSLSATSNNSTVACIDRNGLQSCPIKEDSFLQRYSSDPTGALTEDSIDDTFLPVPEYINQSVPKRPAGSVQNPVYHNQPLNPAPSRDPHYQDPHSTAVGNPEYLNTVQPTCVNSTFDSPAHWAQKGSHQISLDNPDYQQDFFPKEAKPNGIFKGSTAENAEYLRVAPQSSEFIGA
Assay Readout: DC50

The recorded DC50 for entry O=C1CCC(Oc2ccc(N3CCN(CC(=O)N4CCC(NC(=O)c5ccc(C#Cc6cc(F)c7c(c6)C(=O)N(C(C(=O)Nc6nccs6)c6ncn8c6CCC8)C7)cn5)CC4)CC3)cc2)C(=O)N1 (stereo not shown) equals < 50 nM

Looking up O=C1CC[C@H](Nc2ccc(C3CCN(CC(=O)N4CCN(Cc5ccc(-c6cc(F)c7c(c6)C(=O)N(C(C(=O)Nc6nccs6)c6ncn8c6CCC8)C7)cc5)CC4)CC3)c(F)c2)C(=O)N1 (stereo partly shown) , I found its DC50 recorded as < 50 nM

Value of measured DC50 for the entry O=C1CC[C@@H](Nc2ccc(C3CCN(CC(=O)N4CCC(Oc5ccc(-c6cc(F)c7c(c6)C(=O)N(C(C(=O)Nc6nccs6)c6ncn8c6CCC8)C7)cc5)CC4)CC3)cc2)C(=O)N1 (stereo partly shown) : < 50 nM

Entry O=C1CC[C@H](Nc2ccc(C3CCN(CC(=O)N4CCN(c5ccc(-c6cc(F)c7cn(C(C(=O)Nc8nccs8)c8ncn9c8CCC9)nc7c6)cn5)CC4)CC3)c(F)c2)C(=O)N1 (stereo partly shown) ; DC50 = < 50 nM

DC50 reported for this compound Cn1nc(N2CCC(=O)NC2=O)c2ccc(C3CCN(CC(=O)N4CCN(c5ccc(-c6cc(F)c7c(c6)C(=O)N(C(C(=O)Nc6nccs6)c6ncn8c6CCC8)C7)cc5)CC4)CC3)cc21 (stereo not shown) : < 50 nM

###

target: EGFR L858R (Homo sapiens, UniProt P00533, L858R); test: EGFR degradation, Total EGFR (L858R-specific) HTRF, NCI-H3255; format: cell-based; parameters: NCI-H3255 (harboring EGFR heterozygous L858R mutation); host or cells: NCI-H3255; conditions: Table 9A; NCI-H3255 cells, 6 hours, Total EGFR HTRF; read-out: H3255 EGFR DC50
DC50 for assorted molecules

Illustrative cases are given below, each with its answer.
>  <Molecule>
O=C1CC[C@H](Nc2ccc(C3CCN(CC(=O)N4CC5(CCN(c6ccc(-c7cc(F)c8c(c7)C(=O)N(C(C(=O)Nc7nccs7)c7ncn9c7CCC9)C8)cc6)CC5)C4)CC3)c(F)c2)C(=O)N1 (stereo partly shown)

>  <DC50>
50 to 150 nM

$$$$
>  <Molecule>
O=C1CCC(Nc2ccc(C3CCN(C(=O)C(=O)N4CCC(Oc5ccc(-c6cc(F)c7c(c6)C(=O)N(C(C(=O)Nc6nccs6)c6ncn8c6CCC8)C7)cc5)CC4)CC3)cc2)C(=O)N1 (stereo not shown)

>  <DC50>
< 50 nM

$$$$
>  <Molecule>
O=C1CCC(Nc2ccc(C3CCN(CC(=O)N4CCC(Oc5ccc(-c6cc(F)c7c(c6)C(=O)N(C(C(=O)Nc6nccs6)c6ncn8c6CCC8)C7)cc5)CC4)CC3)c(F)c2)C(=O)N1 (stereo not shown)

>  <DC50>
< 50 nM

$$$$
>  <Molecule>
O=C1CC[C@H](Nc2ccc(C3CCN(CC(=O)N4CCN(c5ccc(-c6cc(F)c7c(c6)C(=O)N(C(C(=O)Nc6nccs6)c6ncn8c6C[C@@H](F)C8)C7)cc5)CC4)CC3)c(F)c2)C(=O)N1 (stereo partly shown)

>  <DC50>
< 50 nM

$$$$
>  <Molecule>
Cn1nc(N2CCC(=O)NC2=O)c2ccc(C3CCN(CC(=O)N4CCN(c5ccc(-c6cc(F)c7cn(C(C(=O)Nc8nccs8)c8ncn9c8CCC9)nc7c6)cn5)CC4)CC3)cc21 (stereo not shown)

>  <DC50>
50 to 150 nM

$$$$

Input O=C1CCC(Nc2ccc(C3CCN(CC(=O)N4CCN(c5ccc(-c6cc(F)c7c(c6)C(=O)N(C(C(=O)Nc6nccs6)c6ncn8c6CCC8)C7)cc5)CC4)CC3)c(C(F)F)c2)C(=O)N1 (stereo not shown) . Output DC50: < 50 nM

response.value for O=C1CCC(Nc2ccc(C3CCN(CC(=O)N4CCN(c5ccc(-c6cc(F)c7c(c6)C(=O)N(C(C(=O)Nc6nccs6)c6ncn8c6CCC8)C7)cc5)CC4)CC3)cc2)C(=O)N1 (stereo not shown) (field: DC50) = < 50 nM

Entry O=C1CC[C@H](Nc2ccc(N3CCC(O)(CC(=O)N4CC5(C4)CN(c4ccc(-c6cc(F)c7c(c6)C(=O)N(C(C(=O)Nc6nccs6)c6ncn8c6CCC8)C7)cc4)C5)CC3)c(F)c2)C(=O)N1 (stereo partly shown) — recorded DC50 = < 50 nM

Entry O=C1CCC(Nc2ccc(C3CCN(CC(=O)N4CCN(c5ccc(-c6cc(F)c7c(c6)C(=O)N(C(C(=O)Nc6ccccn6)c6ncn8c6CCC8)C7)cc5)CC4)CC3)cc2)C(=O)N1 (stereo not shown) , DC50 reported as < 50 nM

Query O=C1CCC(Nc2ccc(C3CCN(CC(=O)N4CCN(Cc5ccc(-c6cc(F)c7c(c6)C(=O)N(C(C(=O)Nc6nccs6)c6ncn8c6CCC8)C7)cc5)CC4)CC3)cc2)C(=O)N1 (stereo not shown) yields DC50 of < 50 nM

###

target: EGFR L858R-T790M (Homo sapiens, UniProt P00533, L858R/T790M); construct: NCI-H1975 (harboring EGFR heterozygous L858R-T790M mutations); host or cells: NCI-H1975; assay: EGFR degradation, Total EGFR (L858R-specific) HTRF, NCI-H1975; format: cell-based; conditions: Table 9B; NCI-H1975 cells, 6 hours, Total EGFR HTRF; read-out: H1975 EGFR DC50
Assay Readout: DC50

In the examples that follow, each entry is paired with its recorded DC50.
>  <Compound>
O=C1CCC(Nc2cnc(N3CCC(O)(CC(=O)N4CC5(C4)CN(c4ccc(-c6cc(F)c7c(c6)C(=O)N(C(C(=O)Nc6nccs6)c6ncn8c6CCC8)C7)cc4)C5)CC3)c(F)c2)C(=O)N1 (single isomer, unassigned; isomer 1) [Compound 139]

>  <DC50>
< 0.05 µM

$$$$
>  <Compound>
O=C1CC[C@H](Nc2ccc(N3CCC(O)(CC(=O)N4CCC5(CC4)CN(c4ccc(-c6cc(F)c7cn(C(C(=O)Nc8nccs8)c8ncn9c8CCC9)nc7c6)cc4)C5)CC3)c(F)c2)C(=O)N1 (stereo partly drawn) [Compound 79]

>  <DC50>
< 0.05 µM

$$$$
>  <Compound>
O=C1CCC(Nc2ccc(N3CCC(O)(CC(=O)N4CCC5(C4)CN(c4ccc(-c6cc(F)c7c(c6)C(=O)N(C(C(=O)Nc6nccs6)c6ncn8c6CCC8)C7)cc4)C5)CC3)c(F)c2)C(=O)N1 (stereo not drawn) [Compound 115]

>  <DC50>
< 0.05 µM

$$$$
>  <Compound>
Cn1nc(N2CCC(=O)NC2=O)c2ccc(C3CCN(CC(=O)N4C[C@H]5C[C@@H]4CN5c4ccc(-c5cc(F)c6c(c5)C(=O)N(C(C(=O)Nc5nccs5)c5ncn7c5CCC7)C6)cc4)CC3)cc21 (stereo partly drawn) [Compound 82]

>  <DC50>
> 0.15 µM

$$$$
>  <Compound>
O=C1CCC(Nc2cnc(N3CCC(O)(CC(=O)N4CC5(C4)CN(c4ccc(-c6cc(F)c7c(c6)C(=O)N(C(C(=O)Nc6nccs6)c6ncn8c6CCC8)C7)cc4)C5)CC3)c(F)c2)C(=O)N1 (stereo not drawn) [Compound 90]

>  <DC50>
< 0.05 µM

$$$$
>  <Compound>
O=C1CCC(Nc2ccc(N3CCC(O)(CC(=O)N4CCN(c5ccc(-c6cc(F)c7c(c6)C(=O)N(C(C(=O)Nc6nccs6)c6ncn8c6CCC8)C7)cc5)CC4)CC3)c(F)c2)C(=O)N1 (stereo not drawn) [Compound 83]

>  <DC50>
< 0.05 µM

$$$$
>  <Compound>
O=C1CCC(Nc2ccc(N3CCC(O)(CC(=O)N4CCC5(CC4)CN(c4ccc(-c6cc(F)c7c(c6)C(=O)N(C(C(=O)Nc6nccs6)c6ncn8c6CCC8)C7)cc4)C5)CC3)c(F)c2)C(=O)N1 (stereo not drawn) [Compound 114]

>  <DC50>
< 0.05 µM

$$$$
>  <Compound>
O=C1CCC(Nc2cc(F)c(N3CCC(O)(CC(=O)N4CCC5(CC4)CN(c4ccc(-c6cc(F)c7c(c6)C(=O)N(C(C(=O)Nc6nccs6)c6ncn8c6CCC8)C7)cc4)C5)CC3)c(F)c2)C(=O)N1 (single isomer, unassigned; isomer 1) [Compound 137]

>  <DC50>
0.05 to 0.15 µM

$$$$

For record O=C1CCC(Nc2ccc(N3CCCC(O)(CC(=O)N4CC5(C4)CN(c4ccc(-c6cc(F)c7c(c6)C(=O)N(C(C(=O)Nc6nccs6)c6ncn8c6CCC8)C7)cc4)C5)CC3)c(F)c2)C(=O)N1 (single isomer, unassigned; isomer a1) [Compound 164] the listed DC50 is 0.05 to 0.15 µM
